Parameter: IC50. Scope: all listed entries.
# study target: Induced myeloid leukemia cell differentiation protein Mcl-1 (Homo sapiens)
# assay summary: blockers of Bid binding to Mcl-1 – biochemical, TR-FRET, dose response (AID 1418)
# conditions used: Mcl-1/Bid peptide binding, TR-FRET (europium/Dy647), 2 hr
The source made the active and inactive calls. The rule behind the calls is not given here.

Consider the reported IC50 for these molecules:
CC(NCc1ccc2c(c1)OCO2)C(=O)NC1CCCc2ccccc21 (centres undefined) | > 54 µM (inactive)
Oc1c(Cl)cc(Cl)cc1Sc1cc(Cl)cc(Cl)c1O | 1.67 µM
O=C(CSc1nc2ccccc2c2nc3ccccc3n12)NCc1ccco1 | 2.5 µM
CC1(C)CC(=O)C(C(c2cccnc2)C2C(=O)CC(C)(C)CC2=O)C(=O)C1 | > 54 µM (inactive)
CN1CCN(C(=S)c2cn(Cc3ccccc3F)c3ccccc23)CC1 | > 54 µM (inactive)
NC(=S)N/N=C/c1coc2c(ccc3ccccc32)c1=O | 4.99 µM
O=[N+]([O-])c1ccc2c(c1)ncn2-c1ccccc1 | > 54 µM (inactive)
CC(NC(=O)Cn1cnc2c1c(=O)n(C)c(=O)n2C)c1ccccc1 (centres undefined) | > 54 µM (inactive)
COc1ccc2c(=O)c3c(=O)n(CCc4ccccc4)c(C(C)C)nc3oc2c1 | > 54 µM (inactive)
CCO[C@@H]1OC(C(=O)N2CCN(Cc3ccccc3)CC2)=C[C@H](C2CC2)[C@H]1CCCO | > 54 µM (inactive)

Simply: `O=C(CSCc1ccccc1)NCCCN1CCOCC1` , Induced myeloid leukemia cell differentiation protein Mcl-1 (Homo sapiens), IC50 = > 54 µM (inactive)

====

# study target: Induced myeloid leukemia cell differentiation protein Mcl-1 (Homo sapiens)
# assay summary: blockers of Bid binding to Mcl-1 – biochemical, TR-FRET, dose response (AID 1418)
# conditions used: Mcl-1/Bid peptide binding, TR-FRET (europium/Dy647), 2 hr
Calls of active or inactive are those of the source. No rule for the calls is given here.
endpoint label: IC50

Consider the reported IC50 for these compounds:
C=CCc1cccc2cc(C(=O)Nc3ccc(S(=O)(=O)Nc4nnc(CC)s4)cc3)c(=O)oc12 | > 54 µM (inactive)
O=C(CCS(=O)(=O)c1ccccc1)Nc1ccccc1-c1nc2ccccc2s1 | > 54 µM (inactive)
Oc1ccc(/C=N/Nc2ccnc3cc(Cl)ccc23)c(O)c1 | 6.69 µM
Cc1nc2sc(C(c3cccs3)N3CCOCC3)c(O)n2n1 (stereo not given) | > 54 µM (inactive)
CCOC(=O)N1CCN(c2nc(C)c3c(n2)CCCC3=O)CC1 | > 54 µM (inactive)

Shifting focus to the compound that follows.
The compound `COc1ccc(Cc2nnc(NC(=O)Cc3cccs3)s2)cc1OC` showed IC50 equal to > 54 µM (inactive)

====

# study target: Induced myeloid leukemia cell differentiation protein Mcl-1 (Homo sapiens) (UniProt Q07820)
# Sequence (Q07820 whole entry, looked up): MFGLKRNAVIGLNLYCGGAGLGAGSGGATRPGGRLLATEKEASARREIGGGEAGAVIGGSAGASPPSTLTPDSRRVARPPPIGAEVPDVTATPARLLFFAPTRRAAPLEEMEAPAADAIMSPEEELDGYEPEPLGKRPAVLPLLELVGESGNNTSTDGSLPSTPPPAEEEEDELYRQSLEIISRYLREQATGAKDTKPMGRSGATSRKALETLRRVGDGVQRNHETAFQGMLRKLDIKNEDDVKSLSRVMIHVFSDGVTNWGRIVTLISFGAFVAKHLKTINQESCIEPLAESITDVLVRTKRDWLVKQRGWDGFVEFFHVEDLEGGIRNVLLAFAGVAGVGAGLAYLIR
# assay summary: blockers of Bid binding to Mcl-1 – biochemical, TR-FRET, dose response (AID 1418)
# conditions used: Mcl-1/Bid peptide binding, TR-FRET (europium/Dy647), 2 hr
Activity calls are given as the source filed them. No rule for the calls is given here.
Response enum: active, inactive

NS(=O)(=O)c1ccc(N/N=C/c2ccc(O)c(O)c2O)c([N+](=O)[O-])c1 | active
O=C(NC(=S)Nc1ccc2c(c1)OCCO2)c1ccccc1F | inactive
COc1ccc(-c2csc(/C(C#N)=C\c3ccc(O)c([N+](=O)[O-])c3)n2)cc1OC | inactive
CCCCCSc1nnc2c(n1)OC(c1cccn1C)N(C(C)=O)c1ccccc1-2 (stereo not drawn) | inactive

For `CCOC(=O)c1[nH]cnc1C(=O)Nc1ccncc1` , what call appears in the results of this test?
inactive

For `Cc1[nH]n2c(=O)c3c(nc2c1-c1ccc(F)cc1)CCCC3` , what call appears in the results of this test?
inactive

For COc1ccc(OC)c(-n2c(N)c(C(=O)NCC3CCCO3)c3nc4ccccc4nc32)c1 (stereo not drawn) , what call appears in the results of this test?
inactive

For `COc1cc2nc(N3CCN(C(=O)c4ccco4)CC3)nc(N)c2cc1OC` , what call appears in the results of this test?
inactive

For Cc1ccc(NC(=O)CN2C(=O)/C(=C3\SC(=S)N(C4CCS(=O)(=O)C4)C3=O)c3ccccc32)cc1 (stereo not drawn) , what call appears in the results of this test?
active

For `C/C(=N/NC(=O)c1ccccn1)c1ccc(O)cc1` , what call appears in the results of this test?
inactive

For `Cc1ccc(NC(=O)C(=O)NCc2ccc(/C=C(/C#N)C(=O)NCc3cccnc3)o2)cc1C` , what call appears in the results of this test?
inactive

For `Cc1cc(NS(=O)(=O)c2ccc(NC(NC(=O)C(C(F)(F)F)C(F)(F)F)(C(F)(F)F)C(F)(F)F)cc2)no1` , what call appears in the results of this test?
active

For `O=C(Cc1cccs1)N1CCN(S(=O)(=O)c2ccccc2)CC1` , what call appears in the results of this test?
inactive

For `COCCn1c(SCC(=O)NC(=O)NCc2ccccc2)nc2ccccc21` , what call appears in the results of this test?
inactive

For `CCOc1ccc(N=C2NC(=O)S/C2=C\c2ccc(O)cc2)cc1` , what call appears in the results of this test?
active

====

# study target: Induced myeloid leukemia cell differentiation protein Mcl-1 (Homo sapiens)
# assay summary: blockers of Bid binding to Mcl-1 – biochemical, TR-FRET, dose response (AID 1418)
# conditions used: Mcl-1/Bid peptide binding, TR-FRET (europium/Dy647), 2 hr
Activity calls are given as the source filed them. No rule for the calls is given here.
Response enum: true for active, false for inactive

Cc1ccc(-c2ccc(/C=C3/NC(=O)NC3=O)o2)cc1[N+](=O)[O-] | false

For `C=CCOC(=O)/C=C/C(=O)NC(N)=O` , what call appears in the results of this test?
false

For `c1ccc2[nH]c(CN3CCOCC3)nc2c1` , what call appears in the results of this test?
false

For `COc1cc2cc3c(N)c(C(=O)Nc4sc(C)c(C)c4C#N)sc3nc2cc1OC` , what call appears in the results of this test?
true

For `O=C(Nc1ccc2oc(=O)ccc2c1)c1ccc(-c2cccc([N+](=O)[O-])c2)o1` , what call appears in the results of this test?
true

For `O=C1NC(=S)N(C2CC2)C(=O)/C1=C/c1ccc2c(c1)CCN2CCCCl` , what call appears in the results of this test?
true

====

# study target: Induced myeloid leukemia cell differentiation protein Mcl-1 (Homo sapiens) (UniProt Q07820)
# assay summary: blockers of Bid binding to Mcl-1 – biochemical, TR-FRET, dose response (AID 1418)
# conditions used: Mcl-1/Bid peptide binding, TR-FRET (europium/Dy647), 2 hr
Calls of active or inactive are those of the source. No rule for the calls is given here.
Response enum: 1 (yes) = active, 0 (no) = inactive

Study these solved cases before continuing.
COc1cc2c(cc1OC)CN(CC(=O)Nc1ccc(C#N)cc1)CC2 | 0 (no)
O=C(Cn1c(C(F)(F)F)nc2ccccc21)c1ccc(F)cc1 | 0 (no)
NC(=S)n1[nH]c(-c2ccc([N+](=O)[O-])cc2)c(N=Nc2cccc([N+](=O)[O-])c2)c1=O | 1 (yes)

As a next step, examine the compound that follows.
For `O=C(COc1cccnc1[N+](=O)[O-])c1ccc(Cl)s1` , what call appears in the results of this test?
0 (no)

====

# study target: Induced myeloid leukemia cell differentiation protein Mcl-1 (Homo sapiens) (UniProt Q07820)
# assay summary: blockers of Bid binding to Mcl-1 – biochemical, TR-FRET, dose response (AID 1418)
# conditions used: Mcl-1/Bid peptide binding, TR-FRET (europium/Dy647), 2 hr
Activity calls are given as the source filed them. The rule behind the calls is not given here.
Response enum: active, inactive

COc1cc(NC(=O)C2CCN(S(=O)(=O)c3cccc4nonc34)CC2)cc(OC)c1 | inactive
Cc1noc2ncnc(SCc3ccc(C(F)(F)F)cc3)c12 | inactive

For `CCOC(=O)C1CCN(CC(=O)Nc2c(C(=O)OC)[nH]c3cccc(Cl)c23)CC1` , what call appears in the results of this test?
inactive

For `C=CCn1c(SCC(=O)c2[nH]c(C)c(C(=O)OCC)c2C)nc2scc(-c3ccc(OC)c(OC)c3)c2c1=O` , what call appears in the results of this test?
active

For `Cc1ccc(S(=O)(=O)/N=C(\CCl)N2CCOCC2)cc1` , what call appears in the results of this test?
inactive

For `O=C(O)CCc1nn2c3ccccc3n(CC(=O)c3ccccc3)c2nc1=O` , what call appears in the results of this test?
inactive

For `COc1ccc(C(=O)Nc2cccc(C)c2)cc1S(=O)(=O)N1CCOCC1` , what call appears in the results of this test?
inactive

For `COc1cc(NS(=O)(=O)c2ccc(NC(=S)NC(=O)c3sc4ccccc4c3Cl)cc2)nc(OC)n1` , what call appears in the results of this test?
inactive

Source of measurements: PubChem BioAssay AID1418
